# SYSTEM TESTED: T1, soluble guanylyl cyclase alpha 1 (sGCα1) (UniProt Q02108 1-690)
# T1 sequence (looked up): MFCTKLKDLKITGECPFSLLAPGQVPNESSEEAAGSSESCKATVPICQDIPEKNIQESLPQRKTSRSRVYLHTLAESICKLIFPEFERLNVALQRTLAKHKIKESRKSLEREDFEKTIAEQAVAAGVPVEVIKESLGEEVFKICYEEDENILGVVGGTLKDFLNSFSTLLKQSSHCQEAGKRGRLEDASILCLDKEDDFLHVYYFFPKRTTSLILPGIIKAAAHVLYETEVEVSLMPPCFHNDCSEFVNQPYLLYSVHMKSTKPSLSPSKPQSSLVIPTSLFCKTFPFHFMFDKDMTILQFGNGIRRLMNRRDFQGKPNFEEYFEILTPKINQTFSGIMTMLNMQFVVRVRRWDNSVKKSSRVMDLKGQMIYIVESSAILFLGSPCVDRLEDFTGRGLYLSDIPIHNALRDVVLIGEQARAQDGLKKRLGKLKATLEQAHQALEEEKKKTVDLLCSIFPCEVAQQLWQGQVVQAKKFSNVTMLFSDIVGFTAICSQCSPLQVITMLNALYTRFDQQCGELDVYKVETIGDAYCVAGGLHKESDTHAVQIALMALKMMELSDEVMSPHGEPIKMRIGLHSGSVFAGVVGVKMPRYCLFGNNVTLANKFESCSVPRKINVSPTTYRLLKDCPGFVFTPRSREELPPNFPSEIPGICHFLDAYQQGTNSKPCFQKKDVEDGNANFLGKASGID
# ASSAY TEXT: cell-based or functional assay
Ends that are not written are not given here.
METRIC: IC50 (µM), cytotoxicity, Day 6, LNCaP cell culture

What value of IC50 (µM), cytotoxicity, Day 6, LNCaP cell culture has been reported for the following binder? TFCKAFRRRRRRRR-NH2 [Peptide TF6-8R]
28 µM

What value of IC50 (µM), cytotoxicity, Day 6, LNCaP cell culture has been reported for the following binder? TFCKAFPRRRRRRRR-NH2 [Peptide TP7-8R]
23 µM

What value of IC50 (µM), cytotoxicity, Day 6, LNCaP cell culture has been reported for the following binder? FCAAFRRRRRRRR-NH2 [Peptide FF5-K3A-8R]
38 µM

What value of IC50 (µM), cytotoxicity, Day 6, LNCaP cell culture has been reported for the following binder? CKAFRRRRRRRR-NH2 [Peptide CF4-8R]
120 µM

What value of IC50 (µM), cytotoxicity, Day 6, LNCaP cell culture has been reported for the following binder? FAKAFRRRRRRRR-NH2 [Peptide FF5-C2A-8R]
145 µM

What value of IC50 (µM), cytotoxicity, Day 6, LNCaP cell culture has been reported for the following binder? FCKAFRRRRRRRR-NH2 [Peptide FF5-8R]
40 µM

What value of IC50 (µM), cytotoxicity, Day 6, LNCaP cell culture has been reported for the following binder? FCKAARRRRRRRR-NH2 [Peptide FF5-F5A-8R]
120 µM

What value of IC50 (µM), cytotoxicity, Day 6, LNCaP cell culture has been reported for the following binder? FMKAFRRRRRRRR-NH2 [Peptide FF5-C2M-8R]
65 µM
